- target.desc: T1, monkey CD19 on HEK293T-monkey CD19 cells (monkey)
- T1 construct: whole, on cells
- method: FACS on HEK293T-monkey CD19 cells
Reported Maximum mean fluorescence intensity is given for each of the following binders.
Answer with a number only.

F2.15.26 (antibody, human IgG1, V domains shown, human-murine chimeric antibody, human IgG1) VH: QVQLKESGPGLVAPSQSLSITCTVSGFSLTDYGVSWIRQSPGKGLEWLGVIWGSGDTYYNSVLESRLSINKDNSKNQVFLKMNSLQTDDAAMYFCAKHSYYGGSFAMDYWGQGTSVTVSS VL: DIQMTQTTSSLSASLGDRVTISCRASQDISNYLNWYQQKPDGTVKLLIYYTSRLHSGVPSRFSGSGSGTDYSLTISNLEQEDIATYFCQQGKTLPWTFGGGTKLEIK :: 28700
F4.78.1 (antibody, human IgG1, V domains shown, human-murine chimeric antibody, human IgG1) VH: QVQIQQSGAELARPGASVKLSCKASGYTFTNYWMQWIKQRPGQGLEWIGAIYPGDGDTRYTQKFKGKATLTADKSSSTAYMQLSSLASEDSAVYYCAREEVWSPYGMDYWGQGTSVTVSS VL: QIVLTQSPAIMSASPGEKVTITCSASSSVSYMGWFQQKPGTSPKLWIYSTSNLASGVPARFSGSGSGTSYSLTISRMEAEDAATYYCQQRSIYPLTFGAGTKLELK :: 57000

Please examine the following record next.
[Q] Tell us which Maximum mean fluorescence intensity value is on record for F5.11.2 (antibody, human IgG1, V domains shown, human-murine chimeric antibody, human IgG1) VH: EVQLVESGGDLVKPGGSLKLSCAASGFTFSSYGMSWVRQTPDKRLEWVATISHGGSYTHYPDSVKGRFTISRDNAKNTLYLQMNSLKSEDTAMYYCVRLPITTVEAPYFFDYWGQGTTLTVSS VL: DIQMTQTTSSLSASLGDRVTISCRASQDIRNYLNWYQQKPDGTVKLLIYYTSILHSGVPSRFSGSGSGTDYSLTINNLEQEDVATYFCQQGNTLYTFGGGTEVELR
[A] 80600
